# targetOfAssay: T1, cynomolgus monkey CD19 on peripheral blood B cells (cynomolgus monkey (Macaca fascicularis), UniProt A0A2K5W8L9 20-557)
# T1 construct: whole, on cells; also called cynomolgus monkey B cells
# T1 sequence: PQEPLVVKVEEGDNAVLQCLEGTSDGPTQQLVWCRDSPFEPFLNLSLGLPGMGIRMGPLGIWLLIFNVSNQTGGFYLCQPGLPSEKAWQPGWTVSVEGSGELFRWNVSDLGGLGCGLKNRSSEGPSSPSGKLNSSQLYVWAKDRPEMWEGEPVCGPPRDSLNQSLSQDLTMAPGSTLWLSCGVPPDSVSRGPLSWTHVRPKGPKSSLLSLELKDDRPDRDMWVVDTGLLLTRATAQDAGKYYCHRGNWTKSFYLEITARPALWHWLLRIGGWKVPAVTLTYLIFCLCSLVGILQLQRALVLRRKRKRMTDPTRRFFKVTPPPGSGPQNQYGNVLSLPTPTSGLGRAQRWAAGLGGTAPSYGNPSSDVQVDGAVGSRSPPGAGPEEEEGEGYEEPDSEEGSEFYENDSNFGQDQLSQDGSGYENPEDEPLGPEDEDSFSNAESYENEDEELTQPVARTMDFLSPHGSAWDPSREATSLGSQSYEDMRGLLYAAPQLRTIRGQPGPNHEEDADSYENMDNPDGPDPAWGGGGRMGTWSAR
# protocol: FACS, cynomolgus PBMC, CD20+ B cells
Entries and their Proportion of chimeric antibody positive cells to B cells (%) at 10 nM
Write down the numeric answer in % and omit the unit.

F2.15.26 (antibody, human IgG1, V domains shown, human-murine chimeric antibody, human IgG1) VH: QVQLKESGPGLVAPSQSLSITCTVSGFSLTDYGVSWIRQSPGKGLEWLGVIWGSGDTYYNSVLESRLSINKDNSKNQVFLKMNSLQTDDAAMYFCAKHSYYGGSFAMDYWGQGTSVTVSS VL: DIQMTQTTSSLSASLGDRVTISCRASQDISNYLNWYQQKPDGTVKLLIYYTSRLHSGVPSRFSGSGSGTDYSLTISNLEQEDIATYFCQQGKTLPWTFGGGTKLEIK :: 6

Measured Proportion of chimeric antibody positive cells to B cells (%) at 10 nM, F4.96.6 (antibody, human IgG1, V domains shown, human-murine chimeric antibody, human IgG1) VH: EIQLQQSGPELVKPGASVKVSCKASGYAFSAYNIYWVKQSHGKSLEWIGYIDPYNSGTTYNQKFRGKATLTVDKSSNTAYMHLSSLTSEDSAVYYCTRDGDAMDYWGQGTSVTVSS VL: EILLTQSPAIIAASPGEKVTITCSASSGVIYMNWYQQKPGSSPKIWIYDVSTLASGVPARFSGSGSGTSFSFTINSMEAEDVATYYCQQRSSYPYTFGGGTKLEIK : 2

Kindly note the recorded Proportion of chimeric antibody positive cells to B cells (%) at 10 nM for F3.13.2 (antibody, human IgG1, V domains shown, human-murine chimeric antibody, human IgG1) VH: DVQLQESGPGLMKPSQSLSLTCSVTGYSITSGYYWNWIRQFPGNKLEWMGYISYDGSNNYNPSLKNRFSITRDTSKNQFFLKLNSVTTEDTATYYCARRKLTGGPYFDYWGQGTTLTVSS VL: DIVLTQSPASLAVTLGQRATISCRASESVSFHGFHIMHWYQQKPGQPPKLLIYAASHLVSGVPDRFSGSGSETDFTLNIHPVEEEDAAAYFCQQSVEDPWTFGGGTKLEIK , which is 3
